test system: P388; test: Optimal dose for antitumor activity was measured in P388 cells of CDF1 male mice in vivo; assay type: functional, Mus musculus
*1 amine or outer side, *2 acyl side, *3 side chain or, on linkers, in order; H or OH if unused. Where a SMILES comes first, the peptide text is derived from it. Bridges are numbered along the chain shown (N, C = ends). Roman numbers before positions name the chains, in order. [ ]: non-standard residue; d: D form. Actinocin(9to1) = Cc1c2oc3c(C)ccc(C(=O)[*:1])c3nc-2c(C(=O)[*:2])c(N)c1=O; NMeV = CN[C@H](C(=O)O)C(C)C; Sar = CNCC(=O)O
Listed here: items and their measured Optimal dose.
Numbers only; they are read as mg/kg.

These solved cases illustrate the format of a correct answer.
{"Molecule": "Cc1c2oc3c(C)c(OCc4ccc(Cl)cc4)cc(C(=O)N[C@@H]4C(=O)N[C@H](C(C)C)C(=O)N5CCC[C@H]5C(=O)N(C)CC(=O)N(C)[C@@H](C(C)C)C(=O)O[C@@H]4C)c3nc-2c(C(=O)N[C@@H]2C(=O)N[C@H](C(C)C)C(=O)N3CCC[C@H]3C(=O)N(C)CC(=O)N(C)[C@@H](C(C)C)C(=O)O[C@@H]2C)c(N)c1=O", "Recorded Measurement": 0.45}
{"Molecule": "Cc1c2oc3c(C)ccc(C(=O)N[C@@H]4C(=O)N[C@H](C(C)C)C(=O)N5CCC[C@H]5C(=O)N(C)CC(=O)N(C)[C@@H](C(C)C)C(=O)O[C@@H]4C)c3nc-2c(C(=O)N[C@@H]2C(=O)N[C@H](C(C)C)C(=O)N3CCC[C@H]3C(=O)N(C)CC(=O)N(C)[C@@H](C(C)C)C(=O)O[C@@H]2C)c(N)c1=O [DACTINOMYCIN] (I: T[dV]P[Sar][NMeV] / II: T[dV]P[Sar][NMeV]; ester I:1-I:C, II:1-II:C; linker I:N-II:N via Actinocin(9to1))", "Recorded Measurement": 0.125}

Next item in the queue.
Looking for the measured Optimal dose of "COc1cc(C(=O)N[C@@H]2C(=O)N[C@H](C(C)C)C(=O)N3CCC[C@H]3C(=O)N(C)CC(=O)N(C)[C@@H](C(C)C)C(=O)O[C@@H]2C)c2nc3c(C(=O)N[C@@H]4C(=O)N[C@H](C(C)C)C(=O)N5CCC[C@H]5C(=O)N(C)CC(=O)N(C)[C@@H](C(C)C)C(=O)O[C@@H]4C)c(N)c(=O)c(C)c-3oc2c1C" , can you help?
0.6

---

system: P388; assay: Concentration required for 50% inhibition of incorporation of labeled thymidine by p388 cells for synthesis of DNA (in vitro); assay type: functional; conditions: Mus musculus, read-out: ED50 (the source's name)
Endpoint: EC50 (nM)
Numbers only; they are read as nM.

These solved cases illustrate the format of a correct answer.
{"Smiles Code": "Cc1c2oc3c(C)ccc(C(=O)N[C@@H]4C(=O)N[C@H](C(C)C)C(=O)N5CCC[C@H]5C(=O)N(C)CC(=O)N(C)[C@@H](C(C)C)C(=O)O[C@@H]4C)c3nc-2c(C(=O)N[C@@H]2C(=O)N[C@H](C(C)C)C(=O)N3CCC[C@H]3C(=O)N(C)CC(=O)N(C)[C@@H](C(C)C)C(=O)O[C@@H]2C)c(NCCCN)c1=O", "Units": "nM", "Recorded Measurement": 430}
{"Smiles Code": "Cc1c2oc3c(C)ccc(C(=O)N[C@@H]4C(=O)N[C@H](C(C)C)C(=O)N5CCC[C@H]5C(=O)N(C)CC(=O)N(C)[C@@H](C(C)C)C(=O)O[C@@H]4C)c3nc-2c(C(=O)N[C@@H]2C(=O)N[C@H](C(C)C)C(=O)N3CCC[C@H]3C(=O)N(C)CC(=O)N(C)[C@@H](C(C)C)C(=O)O[C@@H]2C)c(NCCCCCCCCCCN)c1=O", "Units": "nM", "Recorded Measurement": 2700}
{"Smiles Code": "Cc1c2oc3c(C)c(O)c(N)c(C(=O)N[C@@H]4C(=O)N[C@H](C(C)C)C(=O)N5CCC[C@H]5C(=O)N(C)CC(=O)N(C)[C@@H](C(C)C)C(=O)O[C@@H]4C)c3nc-2c(C(=O)N[C@@H]2C(=O)N[C@H](C(C)C)C(=O)N3CCC[C@H]3C(=O)N(C)CC(=O)N(C)[C@@H](C(C)C)C(=O)O[C@@H]2C)c/c1=N/Cc1ccccc1", "Units": "nM", "Recorded Measurement": 2700}
{"Smiles Code": "Cc1c2oc3c(C)ccc(C(=O)N[C@@H]4C(=O)N[C@H](C(C)C)C(=O)N5CCC[C@H]5C(=O)N(C)CC(=O)N(C)[C@@H](C(C)C)C(=O)O[C@@H]4C)c3nc-2c(C(=O)N[C@@H]2C(=O)N[C@H](C(C)C)C(=O)N3CCC[C@H]3C(=O)N(C)CC(=O)N(C)[C@@H](C(C)C)C(=O)O[C@@H]2C)c(NCCCCN)c1=O", "Units": "nM", "Recorded Measurement": 3300}

Next item in the queue.
Looking for the measured EC50 of "Cc1c2oc3c(C)c(O)c(N)c(C(=O)N[C@@H]4C(=O)N[C@H](C(C)C)C(=O)N5CCC[C@H]5C(=O)N(C)CC(=O)N(C)[C@@H](C(C)C)C(=O)O[C@@H]4C)c3nc-2c(C(=O)N[C@@H]2C(=O)N[C@H](C(C)C)C(=O)N3CCC[C@H]3C(=O)N(C)CC(=O)N(C)[C@@H](C(C)C)C(=O)O[C@@H]2C)c/c1=N/Cc1cccc(Oc2ccccc2)c1" , can you help?
1500

---

tested on: P388; experiment: Median survival time of the P388 cells implanted CDF1 male mice in vivo; format: functional, Mus musculus
Endpoint: MST (days)
Numbers only; they are read as days.

{"Smiles Code": "Cc1c2oc3c(C)c(OC(=O)C45CC6CC(CC(C6)C4)C5)cc(C(=O)N[C@@H]4C(=O)N[C@H](C(C)C)C(=O)N5CCC[C@H]5C(=O)N(C)CC(=O)N(C)[C@@H](C(C)C)C(=O)O[C@@H]4C)c3nc-2c(C(=O)N[C@@H]2C(=O)N[C@H](C(C)C)C(=O)N3CCC[C@H]3C(=O)N(C)CC(=O)N(C)[C@@H](C(C)C)C(=O)O[C@@H]2C)c(N)c1=O", "Endpoint": "MST", "Recorded Measurement": 28}
{"Smiles Code": "Cc1c2oc3c(C)c(OC(=O)c4ccc5ccccc5c4)cc(C(=O)N[C@@H]4C(=O)N[C@H](C(C)C)C(=O)N5CCC[C@H]5C(=O)N(C)CC(=O)N(C)[C@@H](C(C)C)C(=O)O[C@@H]4C)c3nc-2c(C(=O)N[C@@H]2C(=O)N[C@H](C(C)C)C(=O)N3CCC[C@H]3C(=O)N(C)CC(=O)N(C)[C@@H](C(C)C)C(=O)O[C@@H]2C)c(N)c1=O", "Endpoint": "MST", "Recorded Measurement": 18}

Looking for the measured MST of "CCOc1cc(C(=O)N[C@@H]2C(=O)N[C@H](C(C)C)C(=O)N3CCC[C@H]3C(=O)N(C)CC(=O)N(C)[C@@H](C(C)C)C(=O)O[C@@H]2C)c2nc3c(C(=O)N[C@@H]4C(=O)N[C@H](C(C)C)C(=O)N5CCC[C@H]5C(=O)N(C)CC(=O)N(C)[C@@H](C(C)C)C(=O)O[C@@H]4C)c(N)c(=O)c(C)c-3oc2c1C" , can you help?
20

---

species on record: Bos taurus; test: Thermal denaturation (deltaTm) of compound against calf thymus DNA was measured; type: ADME; conditions: cattle, in vitro
Listed here: items and their measured Delta Tm.

{"Smiles Code": "Cc1c2oc3c(C)ccc(C(=O)N[C@@H]4C(=O)N[C@H](C(C)C)C(=O)N5CCC[C@H]5C(=O)N(C)CC(=O)N(C)[C@@H](C(C)C)C(=O)O[C@@H]4C)c3nc-2c(C(=O)N[C@@H]2C(=O)N[C@H](C(C)C)C(=O)N3CCC[C@H]3C(=O)N(C)CC(=O)N(C)[C@@H](C(C)C)C(=O)O[C@@H]2C)c(NCCCCCCCCCCN)c1=O", "Delta Tm": 6.6}

Next item in the queue.
Looking for the measured Delta Tm of "CCCCCCNc1c(C(=O)N[C@@H]2C(=O)N[C@H](C(C)C)C(=O)N3CCC[C@H]3C(=O)N(C)CC(=O)N(C)[C@@H](C(C)C)C(=O)O[C@@H]2C)c2nc3c(C(=O)N[C@@H]4C(=O)N[C@H](C(C)C)C(=O)N5CCC[C@H]5C(=O)N(C)CC(=O)N(C)[C@@H](C(C)C)C(=O)O[C@@H]4C)ccc(C)c3oc-2c(C)c1=O" , can you help?
0

---

organism: Bos taurus; experiment: Thermal denaturation (deltaTm) of compound against calf thymus DNA was measured; assay type: ADME; details: cattle, in vitro
Endpoint: Delta Tm
Keep the answer to the number alone.

{"Molecule": "Cc1c2oc3c(C)ccc(C(=O)N[C@@H]4C(=O)N[C@H](C(C)C)C(=O)N5CCC[C@H]5C(=O)N(C)CC(=O)N(C)[C@@H](C(C)C)C(=O)O[C@@H]4C)c3nc-2c(C(=O)N[C@@H]2C(=O)N[C@H](C(C)C)C(=O)N3CCC[C@H]3C(=O)N(C)CC(=O)N(C)[C@@H](C(C)C)C(=O)O[C@@H]2C)c(NCCCCCCCCN)c1=O", "Recorded Measurement": 0.3}
{"Molecule": "CCCCCCCCCNc1c(C(=O)N[C@@H]2C(=O)N[C@H](C(C)C)C(=O)N3CCC[C@H]3C(=O)N(C)CC(=O)N(C)[C@@H](C(C)C)C(=O)O[C@@H]2C)c2nc3c(C(=O)N[C@@H]4C(=O)N[C@H](C(C)C)C(=O)N5CCC[C@H]5C(=O)N(C)CC(=O)N(C)[C@@H](C(C)C)C(=O)O[C@@H]4C)ccc(C)c3oc-2c(C)c1=O", "Recorded Measurement": 0}

Looking for the measured Delta Tm of "CCCNc1c(C(=O)N[C@@H]2C(=O)N[C@H](C(C)C)C(=O)N3CCC[C@H]3C(=O)N(C)CC(=O)N(C)[C@@H](C(C)C)C(=O)O[C@@H]2C)c2nc3c(C(=O)N[C@@H]4C(=O)N[C@H](C(C)C)C(=O)N5CCC[C@H]5C(=O)N(C)CC(=O)N(C)[C@@H](C(C)C)C(=O)O[C@@H]4C)ccc(C)c3oc-2c(C)c1=O" , can you help?
1.5

Looking for the measured Delta Tm of "Cc1c2oc3c(C)c(O)c(N)c(C(=O)N[C@@H]4C(=O)N[C@H](C(C)C)C(=O)N5CCC[C@H]5C(=O)N(C)CC(=O)N(C)[C@@H](C(C)C)C(=O)O[C@@H]4C)c3nc-2c(C(=O)N[C@@H]2C(=O)N[C@H](C(C)C)C(=O)N3CCC[C@H]3C(=O)N(C)CC(=O)N(C)[C@@H](C(C)C)C(=O)O[C@@H]2C)c/c1=N/Cc1ccccc1" , can you help?
6.6

Looking for the measured Delta Tm of "Cc1c2oc3c(C)c(OCc4ccc(Cl)c(Cl)c4)cc(C(=O)N[C@@H]4C(=O)N[C@H](C(C)C)C(=O)N5CCC[C@H]5C(=O)N(C)CC(=O)N(C)[C@@H](C(C)C)C(=O)O[C@@H]4C)c3nc-2c(C(=O)N[C@@H]2C(=O)N[C@H](C(C)C)C(=O)N3CCC[C@H]3C(=O)N(C)CC(=O)N(C)[C@@H](C(C)C)C(=O)O[C@@H]2C)c(N)c1=O" , can you help?
0

Looking for the measured Delta Tm of "Cc1c2oc3c(C)c(O)c(N)c(C(=O)N[C@@H]4C(=O)N[C@H](C(C)C)C(=O)N5CCC[C@H]5C(=O)N(C)CC(=O)N(C)[C@@H](C(C)C)C(=O)O[C@@H]4C)c3nc-2c(C(=O)N[C@@H]2C(=O)N[C@H](C(C)C)C(=O)N3CCC[C@H]3C(=O)N(C)CC(=O)N(C)[C@@H](C(C)C)C(=O)O[C@@H]2C)cc1=N" , can you help?
8.2

Looking for the measured Delta Tm of "CCCCCCCOc1cc(C(=O)N[C@@H]2C(=O)N[C@H](C(C)C)C(=O)N3CCC[C@H]3C(=O)N(C)CC(=O)N(C)[C@@H](C(C)C)C(=O)O[C@@H]2C)c2nc3c(C(=O)N[C@@H]4C(=O)N[C@H](C(C)C)C(=O)N5CCC[C@H]5C(=O)N(C)CC(=O)N(C)[C@@H](C(C)C)C(=O)O[C@@H]4C)c(N)c(=O)c(C)c-3oc2c1C" , can you help?
0

Looking for the measured Delta Tm of "CCCCCCCCCCCNc1c(C(=O)N[C@@H]2C(=O)N[C@H](C(C)C)C(=O)N3CCC[C@H]3C(=O)N(C)CC(=O)N(C)[C@@H](C(C)C)C(=O)O[C@@H]2C)c2nc3c(C(=O)N[C@@H]4C(=O)N[C@H](C(C)C)C(=O)N5CCC[C@H]5C(=O)N(C)CC(=O)N(C)[C@@H](C(C)C)C(=O)O[C@@H]4C)ccc(C)c3oc-2c(C)c1=O" , can you help?
0
